system-name: Enteropeptidase (Homo sapiens)
Sequence (P98073 2-784 limits assumed): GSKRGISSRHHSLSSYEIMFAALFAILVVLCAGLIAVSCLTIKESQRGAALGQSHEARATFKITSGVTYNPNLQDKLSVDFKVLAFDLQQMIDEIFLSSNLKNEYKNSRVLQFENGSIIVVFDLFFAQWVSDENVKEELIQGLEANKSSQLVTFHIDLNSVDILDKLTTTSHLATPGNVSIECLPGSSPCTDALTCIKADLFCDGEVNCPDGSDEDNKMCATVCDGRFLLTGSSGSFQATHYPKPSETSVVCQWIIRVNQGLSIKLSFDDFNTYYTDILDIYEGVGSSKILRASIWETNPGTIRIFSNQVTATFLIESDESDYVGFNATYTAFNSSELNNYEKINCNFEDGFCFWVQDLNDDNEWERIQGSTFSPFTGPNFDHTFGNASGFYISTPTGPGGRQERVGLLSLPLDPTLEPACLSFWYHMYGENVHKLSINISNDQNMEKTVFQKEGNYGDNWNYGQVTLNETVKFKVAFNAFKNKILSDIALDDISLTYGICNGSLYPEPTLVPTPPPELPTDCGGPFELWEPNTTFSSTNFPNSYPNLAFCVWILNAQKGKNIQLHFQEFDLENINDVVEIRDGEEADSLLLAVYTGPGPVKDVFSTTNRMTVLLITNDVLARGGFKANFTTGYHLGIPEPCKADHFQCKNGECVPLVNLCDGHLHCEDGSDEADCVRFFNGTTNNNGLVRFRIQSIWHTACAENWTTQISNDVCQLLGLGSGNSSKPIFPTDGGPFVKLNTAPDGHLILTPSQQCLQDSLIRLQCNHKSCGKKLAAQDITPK
Sequence (P98073 785-1019 limits assumed): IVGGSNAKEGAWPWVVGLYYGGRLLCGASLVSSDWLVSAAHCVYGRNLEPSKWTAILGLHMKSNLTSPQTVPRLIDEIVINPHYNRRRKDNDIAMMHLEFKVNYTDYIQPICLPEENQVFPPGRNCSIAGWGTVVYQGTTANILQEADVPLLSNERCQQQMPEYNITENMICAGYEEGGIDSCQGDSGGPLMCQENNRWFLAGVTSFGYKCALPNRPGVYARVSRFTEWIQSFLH
assay-comment: Inhibition Assay: Using a 96 well plate (#3915, Costar), a test compound (25 μL), 400 mM Tris-HCl buffer (pH 8.0, 25 μL) and 0.5 mg/mL fluorescence enzyme substrate (Gly-Asp-Asp-Asp-Asp-Lys-β-Naphtylamide, 25 μL) were mixed, and recombinant human enteropeptidase (R&D Systems, Inc., 25 μL) was added. Using a fluorescence plate reader fmax (Molecular Devices, Inc.), the reaction rate was measured from the time-course changes at excitation wavelength 320 nm and fluorescence wavelength 405 nm.
reported-endpoint: Ki (nM)

{"columns": ["smiles-record", "reported-endpoint", "value-observed"],
 "data": [
  ["CCC(CC)(Cc1ccc(C(=O)Oc2ccc(C(=N)N)cc2F)s1)C(=O)N[C@@H](CCC(=O)O)C(=O)O", "Ki", 0.27]
]}

* * *

system-name: Serine protease 1 (Homo sapiens)
Sequence (P07477 whole entry): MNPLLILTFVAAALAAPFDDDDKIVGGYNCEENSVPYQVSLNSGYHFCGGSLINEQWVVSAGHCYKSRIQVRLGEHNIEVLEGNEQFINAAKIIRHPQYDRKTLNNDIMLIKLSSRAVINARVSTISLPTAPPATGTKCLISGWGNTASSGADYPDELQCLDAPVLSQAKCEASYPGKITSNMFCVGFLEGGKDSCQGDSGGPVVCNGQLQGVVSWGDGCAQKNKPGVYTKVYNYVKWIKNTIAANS
pKi: −log10 of the molar value.
reported-endpoint: pKi

{"columns": ["smiles-record", "value-observed"],
 "data": [
  ["CCC(CC)(Cc1ccc(C(=O)Oc2ccc(C(=N)N)cc2F)s1)C(=O)N[C@@H](CCC(=O)O)C(=O)O", 8.70]
]}
